- TARGET DESC: CD16a176V (UniProt P08637)
- Sequence (P08637 17-208 F176V limits assumed): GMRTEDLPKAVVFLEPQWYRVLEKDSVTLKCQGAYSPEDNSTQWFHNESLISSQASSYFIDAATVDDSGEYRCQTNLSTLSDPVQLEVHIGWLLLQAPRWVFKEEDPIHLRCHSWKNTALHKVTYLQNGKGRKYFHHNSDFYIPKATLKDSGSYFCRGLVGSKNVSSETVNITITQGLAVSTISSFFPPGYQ
- PROTOCOL NOTES: SPR, BIAcore 8K, antibody captured on anti-Fab chip, single-cycle kinetics, bivalent analyte model
RECORDED ENDPOINT: Kd (nM)

INSERT INTO results (substance, unit_abbreviation, observed_result) VALUES
  ('CD-GLU antibody (human IgG1, m1,17 allotype, CD loop replaced by the Glu epitope YMPMENNY)', 'nM', 334);

---

- TARGET DESC: CD32b (FcgammaRIIb)
- PROTOCOL NOTES: SPR, BIAcore 8K, antibody captured on anti-Fab chip, steady state affinity fit
RECORDED ENDPOINT: Kd (nM)

INSERT INTO results (substance, target_desc, recorded_endpoint, unit_abbreviation, observed_result) VALUES
  ('CD-GLU antibody (human IgG1, m1,17 allotype, CD loop replaced by the Glu epitope YMPMENNY)', 'CD32b (FcgammaRIIb)', 'Kd', 'nM', 1610);

---

- TARGET DESC: CD32a167R (UniProt P12318)
- Sequence (P12318 36-218 H167R limits assumed): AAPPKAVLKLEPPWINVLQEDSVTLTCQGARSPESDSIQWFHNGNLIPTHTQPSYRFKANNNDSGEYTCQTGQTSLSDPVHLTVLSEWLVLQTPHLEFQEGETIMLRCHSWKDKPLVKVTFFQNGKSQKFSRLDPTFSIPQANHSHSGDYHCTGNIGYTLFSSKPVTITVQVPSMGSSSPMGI
- PROTOCOL NOTES: SPR, BIAcore 8K, antibody captured on anti-Fab chip, steady state affinity fit
RECORDED ENDPOINT: Kd (nM)

INSERT INTO assay_data (substance, observed_result) VALUES
  ('CD-GLU antibody (human IgG1, m1,17 allotype, CD loop replaced by the Glu epitope YMPMENNY)', 488);
